Listed here are molecules together with their documented GI50.
Tested on: KCL22 cells
outcomeMeasure: GI50 (µM)

1. OCCN1CCN(c2ccc(Nc3nc(Nc4cccc(Br)c4)c4ncn(CC5CC5)c4n3)cc2)CC1 [Compound 7d]    2.96
2. OCCN1CCN(c2ccc(Nc3nc(Nc4ccc(Cl)c(C(F)(F)F)c4)c4ncn(CC5CC5)c4n3)cc2)CC1 [Compound 7f]    12.4
3. COc1cc(Nc2nc(Nc3ccc(N4CCN(CCO)CC4)cc3)nc3c2ncn3CC2CC2)ccc1Br [Compound 7g]    5.51
4. Cc1ccc(NC(=O)c2ccc(CN3CCN(C)CC3)cc2)cc1Nc1nccc(-c2cccnc2)n1 [imatinib, reference compound]    9.26
5. N#Cc1cccc(Nc2nc(Nc3ccc(N4CCN(CCO)CC4)cc3)nc3c2ncn3CC2CC2)c1 [Compound 7b]    13.1
6. N#Cc1cccc(Nc2nc(Nc3ccc(N4CCN(CCO)CC4)nc3)nc3c2ncn3CC2CC2)c1 [Compound 7c]    1.54
7. OCCOCCN1CCN(c2ccc(Nc3nc(Nc4cccc(F)c4)c4ncn(CC5CC5)c4n3)cc2)CC1 [Compound 7a]    2.38
8. COC(=O)c1ccc(Nc2nc(Nc3ccc(N4CCN(CCO)CC4)cc3)nc3c2ncn3CC2CC2)cc1Cl [Compound 7e]    3.88

----------
Target: recombinant Abl1 kinase (Homo sapiens)
Construct: made in house
Assay: Abl1 kinase inhibition assay (peptide substrate, [γ-33P]ATP)
Type: biochemical
Details: experimental pIC50 = −logIC50 on Abl; read-out: pIC50 Exp (converted)
Cut-off 200 nM on IC50: below means rule met, at or above means rule not met.

1. COc1cc(Nc2nc(Nc3ccc(N4CCN(CCO)CC4)cc3)nc3c2ncn3CC2CC2)ccc1Br    rule not met
2. OCCN1CCN(c2ccc(Nc3nc(Nc4cccc(Br)c4)c4ncn(CC5CC5)c4n3)cc2)CC1    rule not met
3. COC(=O)c1ccc(Nc2nc(Nc3ccc(N4CCN(CCO)CC4)cc3)nc3c2ncn3CC2CC2)cc1Cl    rule not met
4. OCCN1CCN(c2ccc(Nc3nc(Nc4ccc(Cl)c(C(F)(F)F)c4)c4ncn(CC5CC5)c4n3)cc2)CC1    rule not met
5. OCCOCCN1CCN(c2ccc(Nc3nc(Nc4cccc(F)c4)c4ncn(CC5CC5)c4n3)cc2)CC1    rule met
6. N#Cc1cccc(Nc2nc(Nc3ccc(N4CCN(CCO)CC4)nc3)nc3c2ncn3CC2CC2)c1    rule met
7. N#Cc1cccc(Nc2nc(Nc3ccc(N4CCN(CCO)CC4)cc3)nc3c2ncn3CC2CC2)c1    rule not met

----------
Target: recombinant Abl1 kinase (Homo sapiens, UniProt P00519)
Construct: made in house
Sequence (P00519 whole entry): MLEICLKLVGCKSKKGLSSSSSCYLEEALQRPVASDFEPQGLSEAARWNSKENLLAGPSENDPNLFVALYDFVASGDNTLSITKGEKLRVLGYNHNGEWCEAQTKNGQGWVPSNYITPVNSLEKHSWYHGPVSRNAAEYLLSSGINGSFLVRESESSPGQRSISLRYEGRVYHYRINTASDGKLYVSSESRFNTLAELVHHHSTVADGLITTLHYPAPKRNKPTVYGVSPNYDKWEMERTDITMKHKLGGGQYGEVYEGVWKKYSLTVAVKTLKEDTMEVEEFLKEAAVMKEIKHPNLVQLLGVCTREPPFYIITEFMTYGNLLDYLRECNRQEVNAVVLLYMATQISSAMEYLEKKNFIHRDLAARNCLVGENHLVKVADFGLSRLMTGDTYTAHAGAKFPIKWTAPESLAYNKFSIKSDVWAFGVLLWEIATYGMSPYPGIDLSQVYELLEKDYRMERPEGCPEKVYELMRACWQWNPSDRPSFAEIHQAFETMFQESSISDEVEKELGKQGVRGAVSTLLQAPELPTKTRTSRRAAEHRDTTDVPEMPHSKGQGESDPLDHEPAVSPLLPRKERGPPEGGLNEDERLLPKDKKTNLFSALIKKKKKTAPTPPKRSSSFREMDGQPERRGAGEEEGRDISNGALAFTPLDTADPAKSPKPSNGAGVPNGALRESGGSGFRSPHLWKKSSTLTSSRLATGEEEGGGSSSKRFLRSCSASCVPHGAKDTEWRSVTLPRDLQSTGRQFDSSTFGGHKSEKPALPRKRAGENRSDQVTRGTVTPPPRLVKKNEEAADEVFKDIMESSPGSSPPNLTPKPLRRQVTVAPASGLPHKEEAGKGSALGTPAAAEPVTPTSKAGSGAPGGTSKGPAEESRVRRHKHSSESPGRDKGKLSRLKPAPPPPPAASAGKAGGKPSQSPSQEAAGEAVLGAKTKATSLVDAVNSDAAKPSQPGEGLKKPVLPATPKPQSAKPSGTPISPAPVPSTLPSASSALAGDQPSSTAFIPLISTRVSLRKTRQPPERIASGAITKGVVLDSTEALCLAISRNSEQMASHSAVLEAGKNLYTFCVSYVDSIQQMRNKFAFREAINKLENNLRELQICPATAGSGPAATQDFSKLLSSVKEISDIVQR
Assay: Abl1 kinase inhibition assay (peptide substrate, [γ-33P]ATP)
Type: biochemical
Conditions: in vitro inhibition of Abl1 kinase; 1 µM ATP; at least three independent experiments; read-out: IC50 Abl
pIC50: −log10 of the molar value.
outcomeMeasure: pIC50

1. OCCOCCN1CCN(c2ccc(Nc3nc(Nc4cccc(F)c4)c4ncn(CC5CC5)c4n3)cc2)CC1    6.89
2. N#Cc1cccc(Nc2nc(Nc3ccc(N4CCN(CCO)CC4)nc3)nc3c2ncn3CC2CC2)c1    6.72
3. COC(=O)c1ccc(Nc2nc(Nc3ccc(N4CCN(CCO)CC4)cc3)nc3c2ncn3CC2CC2)cc1Cl    6.38
4. N#Cc1cccc(Nc2nc(Nc3ccc(N4CCN(CCO)CC4)cc3)nc3c2ncn3CC2CC2)c1    6.34
5. COc1cc(Nc2nc(Nc3ccc(N4CCN(CCO)CC4)cc3)nc3c2ncn3CC2CC2)ccc1Br    6.10
6. OCCN1CCN(c2ccc(Nc3nc(Nc4cccc(Br)c4)c4ncn(CC5CC5)c4n3)cc2)CC1    6.68
7. OCCN1CCN(c2ccc(Nc3nc(Nc4ccc(Cl)c(C(F)(F)F)c4)c4ncn(CC5CC5)c4n3)cc2)CC1    5.90
